Target: CHST7
Experiment: pooled miR-30 sensor sort-seq; sequence = guide strand; further: reference of the scale not given here
Details: shRNA
Mark class 0 for sensor-assay potency score (higher = more potent) values under -0.3, and class 1 for everything at or above.

seqtext=TTGGTAGCAAGTCAAGTCCCAG assignedcategory="class 0"
seqtext=TTACTGGAAACTTCATCTCAAC assignedcategory="class 0"
seqtext=AACAGCAGCGCGAACTTGCAGT assignedcategory="class 0"
seqtext=TTGGGAACCGAGGAGACTGGTT assignedcategory="class 0"
seqtext=TAAATATCCACATTGCACTGTC assignedcategory="class 1"
seqtext=TACCAAATCACATCTCTTCTTT assignedcategory="class 1"

----------
Target: WFDC12
Assay: pooled miR-30 sensor sort-seq; sequence = guide strand
Details: shRNA
Measured sensor-assay potency score (higher = more potent) values are reported for all entries that follow.
attributeMeasured: sensor-assay potency score (higher = more potent)

seqtext=TTCACAGGAATCACACACTTGA resultnumber=-0.211
seqtext=TTTAACTCCTTCCACAGCCACC resultnumber=-1.29
seqtext=TCCTCCTTCTTCCAGTTCCTTC resultnumber=-1.8
seqtext=AAGAACGAGAGACACCATGAGG resultnumber=-1.13
seqtext=TGACACATCTTCATCCTTGTTT resultnumber=0.329
seqtext=TGCAGGTAACAACACTTCCTTT resultnumber=-1.24
seqtext=TTGACACATCTTCATCCTTGTT resultnumber=-1.2
seqtext=TGGTCTGTGTGACACTGGGGAG resultnumber=-1.92

----------
Biological target: CDC23
Assay: pooled miR-30 sensor sort-seq; sequence = guide strand
Conditions: shRNA
Mark Not satisfied for sensor-assay potency score (higher = more potent) values under 0.3, and Satisfied for everything at or above.

seqtext=TATATTTGATGTAACACTGGGC assaysystem=CDC23 assignedcategory=Satisfied
seqtext=TTTGTGCACAAGTTGAAGCTTC assaysystem=CDC23 assignedcategory="Not satisfied"
seqtext=TCTATCAACTGCAACTCTGTGT assaysystem=CDC23 assignedcategory="Not satisfied"
seqtext=TAAGAATCAAACATCATTCTGG assaysystem=CDC23 assignedcategory=Satisfied
seqtext=TATAATCCTATCTCCTTGCTTG assaysystem=CDC23 assignedcategory="Not satisfied"
seqtext=TAAATGCACAACACTTTTGTGC assaysystem=CDC23 assignedcategory="Not satisfied"

----------
Molecular target: ALDH1A3
Test: pooled miR-30 sensor sort-seq; sequence = guide strand
Conditions: shRNA
attributeMeasured: sensor-assay potency score (higher = more potent)

seqtext=ATTGTTGATAAATATCTTGGTG resultnumber=-0.0591
seqtext=TTCGATACTTTTGAACTTCAGT resultnumber=-0.228
seqtext=TCATTGTTGATAAATATCTTGG resultnumber=-0.45
seqtext=TTTTGAACTTCAGTATTGGTTG resultnumber=-0.527

----------
Biological target: PAQR4
Experiment: pooled miR-30 sensor sort-seq; sequence = guide strand
Conditions: shRNA
Mark N for sensor-assay potency score (higher = more potent) values under -0.9, and Y for everything at or above.

seqtext=TCGTTGTGCAGGTAGAAGAGGC assaysystem=PAQR4 assignedcategory=Y
seqtext=TTTATTGATGTCATCCAGGGTC assaysystem=PAQR4 assignedcategory=Y
seqtext=TTCGTTGTGCAGGTAGAAGAGG assaysystem=PAQR4 assignedcategory=Y
seqtext=TATTGAACTGCAGGTGCGGCGG assaysystem=PAQR4 assignedcategory=N
seqtext=TAGCAGGGCAGGGAGCCTGGAG assaysystem=PAQR4 assignedcategory=N
seqtext=TTGAACTGCAGGTGCGGCGGCG assaysystem=PAQR4 assignedcategory=N
seqtext=GAACTTATTGAACTGCAGGTGC assaysystem=PAQR4 assignedcategory=N
